- SYSTEM TESTED: ERBB4 (human)
- PROTOCOL TEXT: SelectScreen, TR FRET
- CONDITION DESCRIPTION: compound 10.0 µM
Note to self: values exactly at 10% are condition met. So inhibition at or above 10% is condition met, below is condition not met.

smiles_str=C[C@@H](Nc1c(C(N)=O)nnc2cc(-c3ccc(S(C)(=O)=O)cc3)ccc12)C1CC1 label_value="condition met"
smiles_str=CS(=O)(=O)c1ccc(-c2ccc3c(NC4CCC4)c(C(N)=O)nnc3c2)cc1 label_value="condition not met"
smiles_str=CC(C)Nc1c(C(N)=O)nnc2cc(-c3ccc(N4CCOCC4)cc3)ccc12 label_value="condition met"
smiles_str=CC(C)Nc1c(C(N)=O)nnc2cc(-c3ccncc3)ccc12 label_value="condition met"
smiles_str=CC(C)Nc1c(C(N)=O)nnc2ccc(-c3ccncc3)cc12 label_value="condition met"
